The reported numbers originate from ChEMBL document CHEMBL3885861.

Species on record: Rattus norvegicus
Assay: Open TG-GATES - Regimen: Daily Repeat
Assay type: toxicity, organism-based, Sprague-Dawley
Design: regimen Daily Repeat, gender Male, age 6 weeks
Conditions: in vivo, po, 0 mg/kg, […], tissue Plasma, route gavage, dose level Control, time 7 day
# TG >= 100 mg/dL gives 1, anything below gives 0

In: Is the recorded value of TG equal to or greater than 100 mg/dL for this compound? CCN1CCCC1CNC(=O)c1cc(S(N)(=O)=O)ccc1OC (centres undefined) [SULPIRIDE]
Out: 1

In: // inclusive: TG at least 100 mg/dL? input: `CCc1oc2ccccc2c1C(=O)c1cc(I)c(O)c(I)c1`
Out: 1

In: Quick check: does `Nc1nc(N)c2nc(-c3ccccc3)c(N)nc2n1` have TG greater than or equal to 100 mg/dL?
Out: 1

In: Check this compound for TG at or above 100 mg/dL: `CC(C)(S)[C@@H](N)C(=O)O`
Out: 1

In: Check if TG >= 100 mg/dL (inclusive). Item: `CCSCC[C@H](N)C(=O)O`
Out: 1

In: Quick check, TG >= 100 mg/dL? `CC(=O)Oc1cc(C(C)C)c(OCCN(C)C)cc1C`
Out: 1

In: Record `O=C(O)c1cccnc1` ; criterion: TG no lower than 100 mg/dL. Met?
Out: 1

In: Decide: is the reported value of TG for `Oc1ncnc2[nH]ncc12` equal to or greater than 100 mg/dL?
Out: 0

In: Reported TG reaches at least 100 mg/dL for `C[C@](N)(Cc1ccc(O)c(O)c1)C(=O)O` ?
Out: 0

In: TG >= 100 mg/dL for `CN1C(=O)OC(C)(C)C1=O` ?
Out: 1

In: TG >= 100 mg/dL for CC(=N)S [THIOACETAMIDE] ?
Out: 1

In: Does the reported TG for `O=C(N[C@H](CO)[C@H](O)c1ccc([N+](=O)[O-])cc1)C(Cl)Cl` fall at or above the 100 mg/dL mark?
Out: 1

In: State whether the measured TG reaches 100 mg/dL, counting equality as reaching it, for CC(C)C(=O)Nc1ccc([N+](=O)[O-])c(C(F)(F)F)c1 [FLUTAMIDE]
Out: 0
